Hello, the source for this data is patent US11274332B2, in case you need it.

# protocol-details: Example 18 Part 1: single ascending dose PK (5-30 mg) in slow and fast acetylators
# Type: in vivo, human
# test-parameters: both sexes, human, plasma, oral, slow acetylators, 5-30 mg; read-out: Mean terminal elimination half-lives

>  <compound>
Nc1ccncc1N [3,4-DAP, 3,4-diaminopyridine]

>  <half-life>
2.22 to 3.11 h

$$$$

====

# protocol-details: Example 18 Part 2: multiple dose PK (20 mg QID) of 3,4-DAP and 3-N-acetyl metabolite in slow and fast acetylators
# Assay type: in vivo, human
# test-parameters: both sexes, human, plasma, oral, 20 mg, Day 1, fast acetylators, Dose 3 interval, 20 mg QID, arith. mean; read-out: Vz/F
quantity-kind: Vd/F (L)

>  <compound>
CC(=O)Nc1cnccc1N [3-N-acetyl amifampridine, N-(4-aminopyridin-3-yl)acetamide]

>  <quantity-kind>
Vd/F

>  <reading>
40.3

$$$$
